test_name: splicing luciferase reporter signal modulators, primary screen, spliceosome inhibition project, cell-based, HEK293, splice +/- reporter (AID 1101);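 note: HEK293 cells carrying a splicing-competent luciferase reporter gene; test concentration not given here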
experimental_conditions: luminescence, 24 h, higher = more signal, called active from +8 up or from −8 down
// label = class 1 if z-score is not less than -0.2, otherwise class 0

Illustrative cases are given below, each with its answer.
compound: COc1ccc([C@H]2C[C@H]3C(Br)=C[C@@H]2C(=O)[C@]32CO2)cc1
qualitative_label: class 0

compound: CC(C)[C@@H](CO)NC(=O)[C@H]1[C@@H](c2ccccc2)N(c2ccccc2)O[C@@H]1C
qualitative_label: class 1

compound: CC(C)c1ccc(NN2C(C(O)C(c3ccccc3)c3ccccc3)C=CC3C(=O)N(c4ccccc4)C(=O)C32)cc1 (configuration not stated)
qualitative_label: class 1

Would you say O=C1OCC=C[C@H]2OC34C=CCN(CCN5CCOCC5)C(=O)[C@H]3N(CCCO)C(=O)[C@@H]4[C@@H]12 (some centres not stated) shows z-score at minimum -0.2?
class 0

###

test_name: MM1S myeloma cell viability, profiling panel, resazurin fluorescence, basal, 24 h, PK04 Diversity Set (AID 1174);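 note: MM1S multiple myeloma cell line; test concentration not given here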
experimental_conditions: higher = more signal, called active from +8 up or from −8 down
Answer each item with its documented z-score.
One number for each entry.

The cases that follow already have their z-score on record.
compound: COCCOC(=O)N1C(=O)[C@@]2(c3cc(C#CC4=CCCCC4)ccc31)[C@H](c1ccc(O)cc1)N1[C@H](c3ccccc3)[C@H](c3ccccc3)OC(=O)[C@H]1[C@@H]2C(N)=O
z-score: -1.85

compound: CCCC[C@H]1OB(O)C[C@H]2C1=C(COc1ccccc1)C[C@H]1C(=O)N(C)C(=O)[C@H]12
z-score: -0.508

compound: COc1cc2c(cc1O)C=[N+](Cc1cccc(OC(F)(F)F)c1)CC2
z-score: -0.682

We now examine a further compound.
Kindly note the recorded z-score for CCCCC(O)C1C=CC2C(=O)N(c3ccccc3)C(=O)C2N1Nc1ccccc1F (centres undefined) , which is -0.459

###

test_name: PSAC antagonists in infected red cells, primary screen, cell-based, P. falciparum Indochina, OD700, 1 h (AID 1154)
experimental_conditions: P. falciparum Indochina infected RBC osmotic lysis, higher = more signal, called active from +8 up or from −8 down
quantity_kind: z-score
Answers are plain numbers.

The cases that follow already have their z-score on record.
molecule: C=C(C)C1C(=C)CN([C@H](CO)c2ccccc2)C1=O (stereo partly specified)
z-score: 0.391

molecule: CC(C)c1ccc(NN2C(C(O)c3cc(C(F)(F)F)cc(C(F)(F)F)c3)C=CC3C(=O)N(c4ccccc4)C(=O)C32)cc1 (stereo unspecified)
z-score: 3.24

molecule: C=CCOC(=O)[C@@H]1[C@H]2C(=O)O[C@H](c3ccccc3)[C@H](c3ccccc3)N2[C@H](c2ccc(OCCOC(=O)[C@@H]3C[C@@H]4C(=O)N[C@@H](CCCC[N+](C)(C)C)C(=O)N4[C@@H]3c3cccc(OCCO)c3)cc2)[C@@]12C(=O)Nc1ccc(I)cc12
z-score: 2.82

molecule: O=C1c2ccccc2[C@@]2(Cc3ccccc3N(CC(F)(F)F)C2=O)[C@H](c2ccc(CO)cc2)N1Cc1ccccc1Cl
z-score: 0.902

molecule: CC(C)N1C(=O)c2ccccc2[C@](C)(C(=O)NCc2ccccc2)[C@@H]1c1ccc(CO)cc1
z-score: 1.53

We now examine a further molecule.
Kindly note the recorded z-score for `C=CCOC(=O)[C@H]1[C@@H]2C(=O)O[C@@H](c3ccccc3)[C@@H](c3ccccc3)N2[C@@H](c2ccc(OCCOC(=O)[C@@H]3C[C@@H]4C(=O)N[C@@H](CCCC[N+](C)(C)C)C(=O)N4[C@@H]3c3ccc(O)cc3)cc2)[C@]12C(=O)Nc1ccccc12` , which is -0.906

###

Test system: glycogen synthase kinase-3 (GSK3A per assay name; protocol says GSK3B)
test_name: GSK3 binders on small-molecule microarrays, primary screen, biochemical, small-molecule microarray, 635 nm fluorescence, GSK3A (AID 1103); note: the record names both GSK3A and GSK3B
experimental_conditions: small-molecule microarray binding, fluorescence 635 nm; higher = more signal
// label = t if composite z-score is not less than 0.2, otherwise f

Illustrative cases are given below, each with its answer.
compound: C#CCN(CC1=CCCCC1)[C@H](c1ccccc1Br)[C@@H](O)Cc1ccccc1
qualitative_label: f

compound: COc1cc2c(cc1O)C=[N+](Cc1cccc(OC(F)(F)F)c1)CC2
qualitative_label: f

compound: CN1C(=O)[C@]2(Cc3ccccc3)N=C(c3ccc(OCCCO)cc3)O[C@@H]2c2ccccc21
qualitative_label: t

Would you say O=C1NC(=O)C2C1C=CC(C(O)c1cccc3ccccc13)N2Nc1ccccn1 (configuration not stated) shows composite z-score at minimum 0.2?
t

Would you say CCN(CC)c1ccc(N2CC=CC34O[C@@H]5/C=C\CCC(C)OC(=O)C5[C@H]3C(=O)N(C(CO)C(C)C)[C@@H]4C2=O)cc1 (some centres not stated) shows composite z-score at minimum 0.2?
f

Would you say `CC(C)(C)OC(=O)CC[C@@]1(C(N)=O)N=C(c2ccc(OCCCO)cc2)O[C@@H]1c1ccccc1` shows composite z-score at minimum 0.2?
t

Would you say `C=CCOC(=O)[C@@H]1[C@H]2C(=O)O[C@H](c3ccccc3)[C@H](c3ccccc3)N2[C@H](c2ccc(OCCOC(=O)[C@@H]3C[C@@H]4C(=O)N[C@@H](Cc5ccccc5)C(=O)N4[C@@H]3c3ccc(O)cc3)cc2)[C@@]12C(=O)Nc1ccc(I)cc12` shows composite z-score at minimum 0.2?
t

###

test_name: S. cerevisiae RM11-1a growth modifiers, primary screen, strain RM11-1a, OD600, basal, 24 h (AID 1177);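 note: cultures grown under basal conditions with no added stressor; test concentration not given here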
experimental_conditions: OD600, 24 h, higher = more signal, called active from +8 up or from −8 down
quantity_kind: z-score
Give bare numbers.

The cases that follow already have their z-score on record.
compound: COc1ccc(C(=O)Nc2ccc(CN3C(=O)[C@@]4(O[C@@H](CCn5cc([C@H](O)c6ccccc6)nn5)[C@H]([Si](C)(C)c5ccc(OC)cc5)[C@H]4C)c4ccccc43)cc2)cc1
z-score: 1.57
--
compound: C=C(CCCC)C(=O)CC[C@@H](OC(=O)c1cccnc1)c1ccc(CO)o1
z-score: 0.0671
--
compound: O=C1NC(=O)C2C1C=CC(C(O)C(c1ccccc1)c1ccccc1)N2Nc1ccc(Cl)cc1Cl (stereo not drawn)
z-score: 1.17
--
compound: C=CCOC(=O)[C@H]1[C@@H]2C(=O)O[C@@H](c3ccccc3)[C@@H](c3ccccc3)N2[C@@H](c2ccc(OCCOC(=O)[C@@H]3C[C@@H]4C(=O)N[C@@H](CCCCN(C)C)C(=O)N4[C@@H]3c3ccc(O)cc3)cc2)[C@]12C(=O)Nc1ccc(I)cc12
z-score: 1.65
--
compound: C=C(COC)/C(=C/C[C@@H](OC(C)=O)c1ccc(OCCO)cc1)c1cc(C(=O)OC)ccc1OC
z-score: 0.303

Each compound below has a reported value. Please supply its z-score.
1. COc1ccc(C(O)C2C=CC3C(=O)NC(=O)C3N2Nc2ccccn2)cc1 (stereo not drawn)
2. C=CCOC(=O)[C@H]1[C@@H]2C(=O)O[C@@H](c3ccccc3)[C@@H](c3ccccc3)N2[C@@H](c2ccc(OCCOC(=O)[C@H]3C[C@H]4C(=O)N5CCC[C@H]5C(=O)N4[C@H]3c3ccc(O)cc3)cc2)[C@]12C(=O)Nc1ccccc12
3. COCCOC(=O)N1C(=O)[C@@]2(c3cc(C#Cc4ccc(OC)cc4)ccc31)[C@H](c1ccc(O)cc1)N1[C@H](c3ccccc3)[C@H](c3ccccc3)OC(=O)[C@H]1[C@@H]2C(=O)NC[C@H](O)c1ccccc1

1. 0.31
2. 1.84
3. 0.95

Each compound below has a reported value. Please supply its z-score.
1. CC(C)(C)OC(=O)CC[C@@]1(C(N)=O)N=C(c2ccc(OCCCO)cc2)O[C@@H]1c1ccccc1
2. CCOC(=O)[C@H]1C/C=C/C[C@H](C(=O)OCC)C(=O)O[C@H]2[C@@H](OC)O[C@H](CO)[C@@H](OC(=O)Nc3cccc(F)c3)[C@@H]2OC1=O
3. COc1ccc([Si](C)(C)[C@H]2[C@H](CCO)O[C@@]3(C(=O)N(Cc4ccc(N5C(=O)COc6ccccc65)cc4)c4ccccc43)[C@@H]2C)cc1
4. COc1ccc([Si](C)(C)[C@@H]2[C@@H](CC(=O)N3Cc4ccccc4C[C@H]3CO)O[C@]3(C(=O)N(C)c4c(Br)cc(C)cc43)[C@H]2C)cc1
5. O=C1C2C=CC(C(O)C(c3ccccc3)c3ccccc3)N(n3cnnc3)C2C(=O)N1Cc1ccccc1 (stereo not drawn)

-0.412
1.84
3.3
1.7
-0.255

Each compound below has a reported value. Please supply its z-score.
1. CC(C)(C)OC(=O)CC[C@@]1(C(=O)NCC(O)CO)N=C(c2ccc(OCCCO)cc2)O[C@@H]1c1ccccc1N=[N+]=[N-] (stereo partly drawn)
2. C[C@@]1([C@@H](NC(=O)c2ccccc2)c2ccc(-c3ccccc3)cc2)C[C@H]1C1CCCCC1
3. C#CCNC(=O)[C@H](Cc1ccccc1)NC(=O)CCC(=O)O
4. COC(=O)c1c(CC[C@@H](CO)NC(=O)N[C@H](Cn2cc(Cc3ccccc3)nn2)C(C)C)oc(C(C)=O)c1C(=O)OC
5. C=C(/C(=C/C[C@@H](OC(C)=O)c1ccc(OCCO)cc1)c1cnc2ccccc2c1)C(C)C
6. COCCCNC(=O)[C@@]1(Cc2ccccc2)N=C(c2ccc(OCCCO)cc2)O[C@H]1c1ccccc1
7. CCOC(=O)[C@H]1CC=C2CC1C(=O)N1CCC[C@@H]1[C@@H]2O[Si](C)(C)C(C)(C)C (stereo partly drawn)

[0.151, 0.0656, -0.051, -0.705, -1.87, -0.82, -0.335]

Each compound below has a reported value. Please supply its z-score.
1. Cc1ccc(S[C@]2(C(=O)NCCN3CCOCC3)CC(=O)N(Cc3ccccc3)[C@@H]2c2ccc(CO)cc2I)cc1
2. CC(=O)NCCCC[C@@H]1NC(=O)[C@@H]2C[C@H](C(=O)NCCCCN(C)C)[C@H](c3cccc(OCCO)c3)N2C1=O
3. COc1ccc(CCNC(=O)[C@@]2(C)c3ccccc3C(=O)N(Cc3cc(F)cc(C(F)(F)F)c3)[C@H]2c2ccc(CO)cc2)cc1
4. C=CC[C@@]1(C(=O)N(C)C)N=C(c2ccc(OCCCO)cc2)O[C@@H]1c1ccccc1N=[N+]=[N-]
5. O=C(NCc1ccccc1)[C@@H]1c2ccccc2C(=O)N(CC23CC4CC(CC(C4)C2)C3)[C@H]1c1ccc(CO)cc1
6. CCCN1C(=O)[C@]2(CCS(=O)(=O)c3ccccc3)N=C(c3ccc(OCCCO)cc3)O[C@@H]2c2ccccc21

1: -1.71; 2: 0.0173; 3: 1.1; 4: 0.274; 5: 0.0739; 6: 0.492

Each compound below has a reported value. Please supply its z-score.
1. O=C1OCCC/C=C\[C@H]2OC34C=CCN(Cn5nnc6ccccc65)C(=O)[C@H]3N(CCCCCCO)C(=O)[C@@H]4C12 (stereo partly drawn)
2. COc1ccc([Si](C)(C)[C@H]2[C@H](CC(=O)N3CCC[C@H]3CO)O[C@@]3(C(=O)N(Cc4cccc(N5C(=O)c6cccc7cccc5c67)c4)c4ccccc43)[C@@H]2C)cc1

[-1.16, 1]
